Reported AC50 by item:
Target: Adenosylmethionine-8-amino-7-oxononanoate aminotransferase (Mycobacterium tuberculosis, UniProt P9WQ81)
Sequence (P9WQ81 whole entry): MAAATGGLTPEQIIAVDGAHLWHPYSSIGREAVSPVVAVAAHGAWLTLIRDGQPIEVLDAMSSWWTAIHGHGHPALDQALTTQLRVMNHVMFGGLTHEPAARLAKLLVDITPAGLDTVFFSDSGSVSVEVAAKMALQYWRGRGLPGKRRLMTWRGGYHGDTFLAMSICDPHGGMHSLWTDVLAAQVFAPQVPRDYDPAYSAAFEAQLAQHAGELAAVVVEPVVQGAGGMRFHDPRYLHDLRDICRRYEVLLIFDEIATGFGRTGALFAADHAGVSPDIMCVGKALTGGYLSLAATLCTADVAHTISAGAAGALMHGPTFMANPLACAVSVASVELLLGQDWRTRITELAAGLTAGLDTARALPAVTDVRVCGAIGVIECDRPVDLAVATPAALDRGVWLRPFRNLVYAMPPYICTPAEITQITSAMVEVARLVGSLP
Test: Mycobacterium tuberculosis BioA enzyme inhibitor Measured in Biochemical System Using Plate Reader - 2163-02_Inhibitor_Dose_CherryPick_Activity.
Assay type: functional, Mycobacterium tuberculosis UT205
The source made the active and inactive calls. No rule for the calls is given here.

Here's what some known entries look like.
[
  {
    "compound": "COc1ccc(C2c3c(oc4ccc(Cl)cc4c3=O)C(=O)N2CCN2CCOCC2)cc1 (centres undefined)",
    "endpoint value": "3.7 µM (active)"
  },
  {
    "compound": "CC(=O)c1ccc(NC(=O)CN2CCN(c3ccccc3)CC2)cc1",
    "endpoint value": "8.6 µM (active)"
  },
  {
    "compound": "O=C(c1ccc(S(=O)(=O)Nc2ccccc2F)cc1)N1CCN(c2ccccc2O)CC1",
    "endpoint value": "3.62 µM (active)"
  }
]

From here, focus on the item given below.
input: Returns the measured AC50 for the input compound. Input: "CNC(=O)C[C@H]1CC[C@@H]2[C@H](COC[C@@H](O)CN2C(=O)Nc2ccc3c(c2)OCO3)O1"
output: 10.4 µM (active)
